Target: T1, human MSLN-FL-his protein (human, UniProt Q13421 296-580)
T1 construct: made in HEK293E cells, purified on nickel column; also called hMSLN-FL-his; human MSLN full-length protein; not shown: His tag
T1 sequence (Q13421 other isoform, or with tags, fused parts or gaps): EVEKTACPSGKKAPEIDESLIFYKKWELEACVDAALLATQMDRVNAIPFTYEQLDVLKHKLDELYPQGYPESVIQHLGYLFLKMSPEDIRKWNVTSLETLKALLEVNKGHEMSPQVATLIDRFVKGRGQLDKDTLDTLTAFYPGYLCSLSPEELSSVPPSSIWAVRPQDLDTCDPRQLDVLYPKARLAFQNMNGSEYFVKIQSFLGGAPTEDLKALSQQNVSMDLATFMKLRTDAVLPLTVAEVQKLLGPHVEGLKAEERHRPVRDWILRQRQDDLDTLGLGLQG
Experiment: competitive ELISA; row F8-19.21; note: test concentration or dose not given here
Measured parameter: competition rate (%)
Numbers only, in %.

[ask] Recorded competition rate of S009-F8-5.15 (antibody, human IgG1, kappa, V domains shown, human-murine chimeric antibody, human IgG1/kappa constant regions) VH: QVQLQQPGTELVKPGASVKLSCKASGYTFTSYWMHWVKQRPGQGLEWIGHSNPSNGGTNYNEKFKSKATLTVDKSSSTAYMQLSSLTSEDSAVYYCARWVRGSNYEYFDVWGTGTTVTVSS VL: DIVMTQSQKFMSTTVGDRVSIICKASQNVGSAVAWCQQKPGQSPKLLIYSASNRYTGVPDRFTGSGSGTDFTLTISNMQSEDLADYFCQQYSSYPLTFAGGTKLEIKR , please.
[reply] 25.5
